Entries and their pEC50
system: Human immunodeficiency virus 1; assay: Antiviral activity against HIV1 BaL R5 subtype B in phytohemagglutininin-activated PBMCs assessed as inhibition of p24 Gag protein expression by MTT assay; assay type: functional, organism-based
// scale note: pEC50 = -log10(conc_M); give the bare number

>>> numericreadout("COC(=O)N[C@H](C(=O)N[C@@H](Cc1ccccc1)[C@@H](O)CN(Cc1ccc(-c2ccccn2)cc1)NC(=O)[C@@H](NC(=O)OC)C(C)(C)C)C(C)(C)C")
8.89

Enquiry: Using the record for "Cc1cccc(C)c1OCC(=O)N[C@@H](Cc1ccccc1)[C@@H](O)C[C@H](Cc1ccccc1)NC(=O)[C@H](C(C)C)N1CCCNC1=O" , report its pEC50.
Return: 8.28

Enquiry: Reported pEC50 for "CC(C)CN(C[C@@H](O)[C@H](Cc1ccccc1)NC(=O)O[C@H]1CO[C@H]2OCC[C@H]21)S(=O)(=O)c1ccc2c(c1)OCO2" : what is it?
Return: 9.70

###

# maps each entry to its pEC50
test system: Human immunodeficiency virus 1; test: Antiviral activity against saquinavir-resistant HIV1 in MT4 cells assessed as inhibition of p24 Gag protein expression by MTT assay; format: functional, organism-based; settings: Human immunodeficiency virus 1, MT4
Keep it numeric: pEC50 is minus log10 of the concentration in mol/L.

>>> numericreadout("CC(C)CN(C[C@@H](O)[C@H](Cc1ccccc1)NC(=O)O[C@H]1CCOC1)S(=O)(=O)c1ccc(N)cc1")
6.48

Enquiry: Entry under review: "CC(C)CN(C[C@@H](O)[C@H](Cc1ccccc1)NC(=O)O[C@H]1CO[C@H]2OCC[C@H]21)S(=O)(=O)c1ccc(N)cc1" . Reported pEC50?
Return: 8.24

###

system: Human immunodeficiency virus 1; assay: Antiviral activity against HIV1 BaL R5 subtype B in phytohemagglutininin-activated PBMCs assessed as inhibition of p24 Gag protein expression by MTT assay; format: functional, organism-based
# EC50 per record follows
Just the number in nM, nothing appended.

>>> numericreadout("CC(C)(C)NC(=O)[C@@H]1CN(Cc2cccnc2)CCN1C[C@@H](O)C[C@@H](Cc1ccccc1)C(=O)N[C@H]1c2ccccc2C[C@H]1O")
22
>>> numericreadout("Cc1c(O)cccc1C(=O)N[C@@H](CSc1ccccc1)[C@H](O)CN1C[C@H]2CCCC[C@H]2C[C@H]1C(=O)NC(C)(C)C")
18

// next item, EC50 requested
Enquiry: Fill in the blank: the reported EC50 of "CC(C)(C)NC(=O)[C@@H]1C[C@@H]2CCCC[C@@H]2CN1C[C@@H](O)[C@H](Cc1ccccc1)NC(=O)[C@H](CC(N)=O)NC(=O)c1ccc2ccccc2n1" is ____.
Return: 8.3

###

assay: Cytotoxicity against human MT2 cells assessed as inhibition of p24 Gag protein expression by MTT assay; type: cell-based
# CC50 per record follows
Respond with the bare value in µM.

>>> numericreadout("CC(C)(C)NC(=O)[C@@H]1C[C@@H]2CCCC[C@@H]2CN1C[C@@H](O)[C@H](Cc1ccccc1)NC(=O)[C@H](CC(N)=O)NC(=O)c1ccc2ccccc2n1")
16.4

Enquiry: For the compound COC(=O)N[C@H](C(=O)N[C@@H](Cc1ccccc1)[C@@H](O)CN(Cc1ccc(-c2ccccn2)cc1)NC(=O)[C@@H](NC(=O)OC)C(C)(C)C)C(C)(C)C [ATAZANAVIR] , what CC50 is on record?
Return: 27.6
